Could you please report measured IC50 for the items listed next?
biological target: Prostaglandin G/H synthase 2 (Oryctolagus cuniculus, UniProt O02768); assay: Inhibition of COX-2 in rabbit peripheral venous blood assessed as formation of 12-hydroxyheptadecatrienoic acid after 24 hrs in by HPLC presence of calcium ionophore […] and lipopolysaccharide
Sequence (O02768 whole entry): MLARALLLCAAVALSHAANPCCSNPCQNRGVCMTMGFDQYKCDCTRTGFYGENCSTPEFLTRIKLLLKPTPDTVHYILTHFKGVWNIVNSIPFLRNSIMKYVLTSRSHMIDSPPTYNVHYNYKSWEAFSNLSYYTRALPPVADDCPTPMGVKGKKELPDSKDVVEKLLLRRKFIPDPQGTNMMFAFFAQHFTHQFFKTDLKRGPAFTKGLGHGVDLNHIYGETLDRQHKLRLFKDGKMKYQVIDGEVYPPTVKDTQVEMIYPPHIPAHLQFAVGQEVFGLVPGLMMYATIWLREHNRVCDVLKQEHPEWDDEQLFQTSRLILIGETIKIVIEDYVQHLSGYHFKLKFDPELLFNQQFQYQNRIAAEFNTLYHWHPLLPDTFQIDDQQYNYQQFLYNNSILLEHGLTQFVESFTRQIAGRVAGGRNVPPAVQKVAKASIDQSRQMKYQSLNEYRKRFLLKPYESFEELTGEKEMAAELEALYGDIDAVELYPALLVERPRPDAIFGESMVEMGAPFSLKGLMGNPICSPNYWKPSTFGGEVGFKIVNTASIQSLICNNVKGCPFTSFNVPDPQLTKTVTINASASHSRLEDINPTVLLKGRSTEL

A selection of reference data follows.
1) Cc1ccc2c(c1)/C(=C\c1ccc(S(C)(=O)=O)cc1)C(=O)N2 : > 50 µM
2) CS(=O)(=O)c1ccc(/C=C2/C(=O)Nc3ccc(F)cc32)cc1 : > 50 µM
3) NS(=O)(=O)c1ccc(/C=C2/C(=O)Nc3cc(Cl)ccc32)cc1 : > 50 µM
4) NS(=O)(=O)c1ccc(/C=C2/C(=O)Nc3ccccc32)cc1 : > 50 µM

Lookup result for `Cc1ccc2c(c1)/C(=C\c1ccc(S(N)(=O)=O)cc1)C(=O)N2` ; measured IC50: > 50 µM

----------
Molecular target: Prostaglandin G/H synthase 1 (Oryctolagus cuniculus, UniProt O97554)
Sequence (O97554 whole entry): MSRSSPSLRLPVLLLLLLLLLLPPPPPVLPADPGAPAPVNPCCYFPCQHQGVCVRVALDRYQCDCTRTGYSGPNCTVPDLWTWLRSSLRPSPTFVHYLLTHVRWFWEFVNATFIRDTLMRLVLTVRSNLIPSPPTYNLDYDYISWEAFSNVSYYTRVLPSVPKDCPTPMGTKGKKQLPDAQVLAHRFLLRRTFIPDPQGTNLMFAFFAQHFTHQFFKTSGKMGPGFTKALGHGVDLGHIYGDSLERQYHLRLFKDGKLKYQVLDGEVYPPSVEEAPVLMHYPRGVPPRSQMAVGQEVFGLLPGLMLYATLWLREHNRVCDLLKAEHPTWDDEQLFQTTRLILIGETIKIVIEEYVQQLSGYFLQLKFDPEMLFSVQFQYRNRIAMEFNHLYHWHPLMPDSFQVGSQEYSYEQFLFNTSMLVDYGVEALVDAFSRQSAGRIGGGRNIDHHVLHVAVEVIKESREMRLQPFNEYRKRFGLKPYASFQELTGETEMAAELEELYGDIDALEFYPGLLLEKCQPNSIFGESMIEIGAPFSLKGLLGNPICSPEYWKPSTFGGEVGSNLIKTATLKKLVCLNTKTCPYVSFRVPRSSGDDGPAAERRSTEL
Test: Inhibition of COX-1 in rabbit peripheral venous blood assessed as formation of 12-hydroxyheptadecatrienoic acid after 24 hrs by HPLC in presence of calcium ionophore A23187
pIC50: −log10 of the molar value.
assayEndpoint: pIC50

Known pIC50 results, listed for orientation:
1) NS(=O)(=O)c1ccc(/C=C2/C(=O)Nc3ccccc32)cc1 : < 4.30
2) Cc1ccc2c(c1)/C(=C\c1ccc(S(C)(=O)=O)cc1)C(=O)N2 : < 4.30

The compound listed as `Cc1ccc2c(c1)/C(=C\c1ccc(S(N)(=O)=O)cc1)C(=O)N2` has a reported pIC50 of < 4.30
